Tested system: PI3K alpha (Homo sapiens (Human), UniProt P42336)
Sequence (P42336 other isoform, or with tags, fused parts or gaps): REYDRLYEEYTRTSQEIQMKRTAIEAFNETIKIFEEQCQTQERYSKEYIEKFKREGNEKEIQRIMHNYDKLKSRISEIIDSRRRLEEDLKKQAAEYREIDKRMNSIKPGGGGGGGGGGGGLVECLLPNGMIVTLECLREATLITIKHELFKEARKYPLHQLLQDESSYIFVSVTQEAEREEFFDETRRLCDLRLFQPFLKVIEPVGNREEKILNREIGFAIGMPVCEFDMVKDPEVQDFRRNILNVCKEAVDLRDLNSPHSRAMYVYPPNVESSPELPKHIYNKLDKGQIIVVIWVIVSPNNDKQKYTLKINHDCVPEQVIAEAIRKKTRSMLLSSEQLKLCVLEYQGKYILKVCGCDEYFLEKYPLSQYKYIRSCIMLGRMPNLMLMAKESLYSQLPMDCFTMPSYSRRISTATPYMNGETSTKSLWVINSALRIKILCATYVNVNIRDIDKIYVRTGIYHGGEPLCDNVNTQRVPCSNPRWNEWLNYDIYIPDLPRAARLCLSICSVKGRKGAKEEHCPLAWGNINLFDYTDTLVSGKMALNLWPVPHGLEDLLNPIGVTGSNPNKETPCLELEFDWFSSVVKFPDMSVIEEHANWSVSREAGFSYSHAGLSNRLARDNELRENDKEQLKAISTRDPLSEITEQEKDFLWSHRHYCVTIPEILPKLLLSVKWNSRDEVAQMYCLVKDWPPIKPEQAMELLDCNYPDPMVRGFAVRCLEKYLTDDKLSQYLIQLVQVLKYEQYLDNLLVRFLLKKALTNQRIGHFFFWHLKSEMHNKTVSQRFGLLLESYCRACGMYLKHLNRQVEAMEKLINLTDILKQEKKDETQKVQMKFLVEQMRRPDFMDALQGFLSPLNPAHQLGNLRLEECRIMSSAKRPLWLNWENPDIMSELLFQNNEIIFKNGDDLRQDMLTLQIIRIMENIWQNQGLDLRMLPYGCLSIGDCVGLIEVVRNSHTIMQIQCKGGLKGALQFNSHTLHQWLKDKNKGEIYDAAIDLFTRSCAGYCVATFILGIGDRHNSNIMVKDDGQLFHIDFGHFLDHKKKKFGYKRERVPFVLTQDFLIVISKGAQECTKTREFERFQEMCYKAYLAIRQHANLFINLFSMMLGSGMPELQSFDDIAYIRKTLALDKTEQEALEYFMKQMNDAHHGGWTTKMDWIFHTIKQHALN
Protocol details: Enzymatic PI3K alpha isoform inhibition (lipid kinase, Kinase-Glo luminescence)
Assay type: biochemical
Quantity: pIC50
// pIC50 here means minus log10 of the molar concentration (mol/L)

Task: I would be grateful if you could share the reported pIC50 for COc1ncc(N2CCc3ncnc(N[C@H]4CCN(C(=O)C5CCOC(C)(C)C5)C4)c3C2)cc1C(F)(F)F (stereo partly shown) .
Output: 7.24

----------
A collection of compounds and their measured IC50
Tested system: PI3K delta (Homo sapiens (Human))
Sequence (O00329 other isoform, or with tags, fused parts or gaps linker GGGGGG): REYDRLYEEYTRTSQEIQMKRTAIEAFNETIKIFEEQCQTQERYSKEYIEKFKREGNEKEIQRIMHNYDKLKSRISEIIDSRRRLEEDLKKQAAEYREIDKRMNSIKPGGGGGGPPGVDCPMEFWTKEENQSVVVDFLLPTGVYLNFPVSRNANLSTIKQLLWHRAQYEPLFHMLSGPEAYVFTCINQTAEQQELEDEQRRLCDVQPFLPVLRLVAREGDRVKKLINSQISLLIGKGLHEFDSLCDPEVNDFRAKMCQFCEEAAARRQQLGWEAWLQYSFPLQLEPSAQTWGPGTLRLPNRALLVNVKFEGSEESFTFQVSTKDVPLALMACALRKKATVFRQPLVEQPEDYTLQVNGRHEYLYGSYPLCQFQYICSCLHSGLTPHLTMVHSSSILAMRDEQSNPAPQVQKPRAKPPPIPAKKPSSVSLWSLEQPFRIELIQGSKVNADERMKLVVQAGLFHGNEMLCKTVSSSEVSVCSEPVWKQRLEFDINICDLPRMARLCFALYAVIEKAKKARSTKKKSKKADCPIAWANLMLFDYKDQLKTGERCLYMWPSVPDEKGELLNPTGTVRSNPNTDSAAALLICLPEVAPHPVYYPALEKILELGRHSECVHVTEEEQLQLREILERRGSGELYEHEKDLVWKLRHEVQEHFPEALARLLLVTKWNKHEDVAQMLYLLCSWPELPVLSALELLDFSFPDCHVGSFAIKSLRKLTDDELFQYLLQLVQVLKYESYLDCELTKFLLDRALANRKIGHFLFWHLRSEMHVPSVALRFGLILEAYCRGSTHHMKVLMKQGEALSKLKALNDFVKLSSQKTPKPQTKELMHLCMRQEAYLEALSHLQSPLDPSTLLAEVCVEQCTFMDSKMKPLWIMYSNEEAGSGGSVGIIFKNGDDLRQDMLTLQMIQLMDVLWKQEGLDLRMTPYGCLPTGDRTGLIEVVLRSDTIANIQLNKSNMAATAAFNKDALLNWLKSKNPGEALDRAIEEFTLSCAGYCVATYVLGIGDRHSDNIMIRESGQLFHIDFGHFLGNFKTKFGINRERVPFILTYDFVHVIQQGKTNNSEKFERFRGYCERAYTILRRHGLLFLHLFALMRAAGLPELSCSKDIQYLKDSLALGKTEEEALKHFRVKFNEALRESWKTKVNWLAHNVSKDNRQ
Protocol details: Enzymatic PI3K delta isoform inhibition (lipid kinase, Kinase-Glo luminescence)
Type: biochemical
Applied conditions: enzymatic assay
Numeric only. Scale: nM

Recorded results for 3 compounds are shown here.
COc1ncc(N2CCc3ncnc(O[C@H]4CCN(C(=O)N(C)CCO)C4)c3C2)cc1C(F)(F)F | 34
COc1ncc(N2CCc3ncnc(O[C@H]4CCN(C(=O)C5CCN(C(C)=O)CC5)C4)c3C2)cc1C(F)(F)F | 9
COc1ncc(N2CCc3ncnc(O[C@H]4CCN(C(=O)c5cnoc5C)C4)c3C2)cc1C | 21

From here, focus on the item given below.
Task: Value lookup for IC50; key = CCC(=O)N1CC[C@H](Nc2ncnc3c2CN(c2cnc(OC)c(C)c2)CC3)C1
Output: 20
